assay notes: Cytotoxicity against human epidermoid carcinoma KB cells
Type: functional, cell-based
In this section, each of the molecules is paired with its reported IC50.
Write down the numeric answer in µg/mL and omit the unit.

• CC(=O)O[C@@]12CO[C@@H]1C[C@H](O)[C@@]1(C)C(=O)[C@H](O)C3=C(C)[C@@H](OC(=O)[C@H](O)C(NC(=O)c4ccccc4)c4ccccc4)C[C@@](O)([C@@H](OC(=O)c4ccccc4)[C@H]21)C3(C)C (stereo not given in full) = 0.015
• CC(=O)O[C@H]1C[C@@]2(O)[C@H]3OC[C@]4(OC(C)=O)[C@H](O)C[C@H](OC(C)=O)[C@](C)([C@H]34)[C@@H](OC(C)=O)[C@H](OC(C)=O)C(=C1C)C2(C)C = 8.8
• C=C1[C@@H](OC(=O)CC(c2ccccc2)N(C)C)CC[C@@]2(C)[C@@H](OC(C)=O)[C@H](OC(C)=O)[C@@]34[C@H](C)C(=O)C[C@@H]([C@@H](OC(C)=O)C132)C4(C)C (stereo not given in full) = 1.6
• C=C1[C@@H](O)C[C@H](OC(C)=O)[C@@]2(C)[C@@H](OC(C)=O)[C@H](OC(C)=O)C3=C(C)[C@@H](OC(C)=O)C[C@@H]([C@@H](O)[C@H]12)C3(C)C = 7.4

--- query ---
Please look at this molecule and report its IC50: C=C1[C@@H](O)C[C@H](OC(C)=O)[C@@]2(COC(=O)c3ccccc3)[C@@H](OC(C)=O)[C@H](OC(C)=O)[C@]3(O)[C@@]4(C)CO[C@]3(C)C(=O)C[C@H]4[C@@H](OC(C)=O)[C@H]12 [TAXININ M]
9.4

----------
Tested on: L1210
assay notes: Cytotoxicity against murine leukemia L1210 cells
Format: functional, cell-based, Mus musculus
conditions used: Mus musculus, L1210; read-out: IC50
observable: IC50 (µg/mL)
Write down the numeric answer in µg/mL and omit the unit.

• C=C1[C@@H](OC(=O)/C=C/c2ccccc2)CC[C@@]2(C)[C@@H](OC(C)=O)[C@H](OC(C)=O)[C@@]34[C@H](C)C(=O)C[C@@H]([C@@H](OC(C)=O)C132)C4(C)C (stereo not given in full) = 5.8

Please look at this compound and report its IC50: CC(=O)O[C@H]1C[C@@H]2OC[C@@]2(OC(C)=O)[C@H]2[C@H](OC(C)=O)[C@]3(O)C[C@H](OC(=O)CC(c4ccccc4)N(C)C)C(C)=C([C@@H](OC(=O)c4ccccc4)[C@H](OC(C)=O)[C@]12C)C3(C)C (stereo not given in full)
7.8

Please look at this compound and report its IC50: CC(=O)O[C@@]12CO[C@@H]1C[C@H](O)[C@@]1(C)C(=O)[C@H](O)C3=C(C)[C@@H](OC(=O)[C@H](O)C(NC(=O)c4ccccc4)c4ccccc4)C[C@@](O)([C@@H](OC(=O)c4ccccc4)[C@H]21)C3(C)C (stereo not given in full)
0.88

----------
In this section, each of the molecules is paired with its reported IC50.
assay notes: Cytotoxicity against human epidermoid carcinoma KB cells
Format: functional, cell-based
Write down the numeric answer in µg/mL and omit the unit.

* CC(=O)O[C@@]12CO[C@@H]1C[C@H](O)[C@@]1(C)C(=O)[C@H](O)C3=C(C)[C@@H](OC(=O)[C@H](O)C(NC(=O)C4CCC4)c4ccccc4)C[C@@](O)([C@@H](OC(=O)c4ccccc4)[C@H]21)C3(C)C (stereo not given in full) | 0.0048

Please look at this molecule and report its IC50: C=C1[C@@H](OC(=O)/C=C/c2ccccc2)C[C@H](OC(C)=O)[C@@]2(C)[C@@H](OC(C)=O)[C@H](OC(C)=O)[C@]3(O)[C@@]4(C)CO[C@]3(C)C(=O)C[C@H]4[C@@H](OC(C)=O)[C@H]12 [TAXAGIFINE]
0.86
